- assay system: Porcine pancreatic α-amylase (Sus scrofa)
- Sequence (P00690 16-511): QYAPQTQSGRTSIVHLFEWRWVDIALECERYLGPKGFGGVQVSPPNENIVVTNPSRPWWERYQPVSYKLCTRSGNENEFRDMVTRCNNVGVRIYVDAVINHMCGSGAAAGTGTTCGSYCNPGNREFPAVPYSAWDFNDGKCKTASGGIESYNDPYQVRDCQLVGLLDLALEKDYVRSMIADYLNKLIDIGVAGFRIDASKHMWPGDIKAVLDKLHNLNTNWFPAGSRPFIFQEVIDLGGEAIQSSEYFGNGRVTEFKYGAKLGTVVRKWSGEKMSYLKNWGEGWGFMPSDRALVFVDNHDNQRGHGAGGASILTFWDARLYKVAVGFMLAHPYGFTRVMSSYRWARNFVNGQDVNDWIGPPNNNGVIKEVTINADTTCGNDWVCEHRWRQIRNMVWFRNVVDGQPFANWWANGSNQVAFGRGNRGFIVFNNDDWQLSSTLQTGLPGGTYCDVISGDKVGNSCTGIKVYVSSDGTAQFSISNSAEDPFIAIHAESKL
value kind: IC50 (µM)
Numbers only, in µM.

In: Fill in reported IC50 for this entry: Oc1cccc2nc3ccccc3nc12 [SF-1, hemi-pyocyanin]
Out: 15.8
